These data points were gathered from paper PMC8619434.

Hi there, I'd appreciate the recorded viability for every entry that follows.
experiment: in vitro; conditions: human
# number only, unit % dropped from output

-- ask For the molecule c1cn2cc(-c3ccc4cn[nH]c4c3)nc(Nc3ccc(N4CCOCC4)cc3)c2n1 , report viability.
-- reply 69

-- ask For the molecule CCN(CC)CCCC(C)Nc1ccnc2cc(Cl)ccc12 (stereo not shown) [chloroquine diphosphate] , report viability.
-- reply 123

-- ask For the molecule O=C(O[C@H]1CN2CCC1CC2)N1CCc2ccccc2[C@@H]1c1ccccc1 [solifenacin succinate] , report viability.
-- reply 99

-- ask For the molecule COc1cc2c(Nc3ccc(Br)cc3F)ncnc2cc1OCC1CCN(C)CC1 , report viability.
-- reply 89
